The following compounds are shown together with reported pEC50 values.
tested on: SW480 colon cancer cells; assay: Cell viability assay (CellTiter-Blue) in SW480 colon cancer cells; assay type: cell-based; conditions: Homo sapiens, 96 h; SW480 cell viability, four days incubation
pEC50: −log10 of the molar value.
readout_type: pEC50

[
  {
    "compound": "NC1CN(c2cncc(-c3ccc4[nH]nc(-c5cc6c(N7CCCCC7)cncc6[nH]5)c4c3)n2)C1 [Compound 606]",
    "readout_type": "pEC50",
    "result_modifier": "=",
    "result_number": 5.55
  },
  {
    "compound": "CCNCc1cncc(-c2ccc3[nH]nc(-c4cc5c(-c6cc(F)cc(CNS(C)(=O)=O)c6)cncc5[nH]4)c3c2)c1 [Compound 482]",
    "readout_type": "pEC50",
    "result_modifier": "<",
    "result_number": 5.00
  },
  {
    "compound": "CS(=O)(=O)NCc1cc(F)cc(-c2cncc3[nH]c(-c4n[nH]c5ccc(-c6cncnc6)cc45)cc23)c1 [Compound 503]",
    "readout_type": "pEC50",
    "result_modifier": "<",
    "result_number": 5.00
  },
  {
    "compound": "O=C(Nc1cncc(-c2ccc3[nH]nc(-c4cc5c(-c6ccccc6F)cncc5[nH]4)c3c2)c1)C1CCCC1 [Compound 78]",
    "readout_type": "pEC50",
    "result_modifier": "=",
    "result_number": 5.91
  },
  {
    "compound": "CC(C)(C)CC(=O)Nc1cncc(-c2ccc3[nH]nc(-c4cc5c(-c6ccccc6F)cncc5[nH]4)c3c2)c1 [Compound 72]",
    "readout_type": "pEC50",
    "result_modifier": "=",
    "result_number": 6.16
  },
  {
    "compound": "CN1CCN(c2cncc3[nH]c(-c4n[nH]c5ccc(-c6cccnc6)cc45)cc23)CC1 [Compound 228]",
    "readout_type": "pEC50",
    "result_modifier": "=",
    "result_number": 5.40
  },
  {
    "compound": "c1cc(-c2cncc3[nH]c(-c4n[nH]c5ccc(-c6cncc(CN7CCCC7)c6)cc45)cc23)ccn1 [Compound 126]",
    "readout_type": "pEC50",
    "result_modifier": "=",
    "result_number": 5.64
  },
  {
    "compound": "CCCC(=O)Nc1cncc(-c2ccc3[nH]nc(-c4cc5ccncc5[nH]4)c3c2)c1 [Compound 269]",
    "readout_type": "pEC50",
    "result_modifier": "=",
    "result_number": 6.01
  },
  {
    "compound": "Fc1cccc(-c2cncc3[nH]c(-c4n[nH]c5ccc(-c6ccccn6)cc45)cc23)c1 [Compound 28]",
    "readout_type": "pEC50",
    "result_modifier": "=",
    "result_number": 6.45
  },
  {
    "compound": "CN1CCN(c2cncc3[nH]c(-c4n[nH]c5ccc(-c6cncc(N)c6)cc45)cc23)CC1 [Compound 227]",
    "readout_type": "pEC50",
    "result_modifier": "<",
    "result_number": 5.00
  },
  {
    "compound": "CCCC(=O)Nc1cncc(-c2ccc3[nH]nc(-c4cc5c(-c6ccncc6)cncc5[nH]4)c3c2)c1 [Compound 129]",
    "readout_type": "pEC50",
    "result_modifier": "<",
    "result_number": 5.00
  },
  {
    "compound": "O=C(Nc1cncc(-c2ccc3[nH]nc(-c4cc5c(-c6cccc(F)c6)cncc5[nH]4)c3c2)c1)C1CC1 [Compound 20]",
    "readout_type": "pEC50",
    "result_modifier": "=",
    "result_number": 7.17
  },
  {
    "compound": "O=C(Nc1cncc(-c2ccc3[nH]nc(-c4cc5c(-c6cccs6)cncc5[nH]4)c3c2)c1)C1CC1 [Compound 356]",
    "readout_type": "pEC50",
    "result_modifier": "=",
    "result_number": 6.93
  },
  {
    "compound": "CN(C)c1cncc(-c2ccc3[nH]nc(-c4cc5c(-c6ccoc6)cncc5[nH]4)c3c2)c1 [Compound 315]",
    "readout_type": "pEC50",
    "result_modifier": "=",
    "result_number": 6.25
  },
  {
    "compound": "CC(C)C(=O)Nc1cncc(-c2ccc3[nH]nc(-c4cc5c(-c6ccccc6F)cncc5[nH]4)c3c2)c1 [Compound 65]",
    "readout_type": "pEC50",
    "result_modifier": "=",
    "result_number": 6.09
  },
  {
    "compound": "O=C(Nc1cncc(-c2ccc3[nH]nc(-c4cc5c(-c6ccncc6)cncc5[nH]4)c3c2)c1)C1CC1 [Compound 132]",
    "readout_type": "pEC50",
    "result_modifier": "<",
    "result_number": 5.00
  },
  {
    "compound": "CN(C)Cc1cncc(-c2ccc3[nH]nc(-c4cc5c(-c6cccc(F)c6)cncc5[nH]4)c3c2F)c1 [Compound 993]",
    "readout_type": "pEC50",
    "result_modifier": "=",
    "result_number": 5.80
  },
  {
    "compound": "c1cncc(-c2ccc3[nH]nc(-c4cc5c(-c6cccnc6)cncc5[nH]4)c3c2)c1 [Compound 88]",
    "readout_type": "pEC50",
    "result_modifier": "=",
    "result_number": 6.31
  },
  {
    "compound": "Fc1ccccc1-c1cncc2[nH]c(-c3n[nH]c4ccc(-c5cn[nH]c5)cc34)cc12 [Compound 539]",
    "readout_type": "pEC50",
    "result_modifier": "=",
    "result_number": 6.87
  },
  {
    "compound": "CN(C)Cc1cncc(-c2ccc3[nH]nc(-c4cc5c(-c6cccc(F)c6)cncc5[nH]4)c3c2)c1 [Compound 13]",
    "readout_type": "pEC50",
    "result_modifier": "=",
    "result_number": 6.38
  },
  {
    "compound": "Fc1ccccc1-c1cncc2[nH]c(-c3n[nH]c4ccc(-c5cncc(CN6CCC(F)(F)C6)c5)cc34)cc12 [Compound 82]",
    "readout_type": "pEC50",
    "result_modifier": "=",
    "result_number": 6.03
  },
  {
    "compound": "CCCCC(=O)Nc1cncc(-c2ccc3[nH]nc(-c4cc5c(-c6cc(F)cc(CNS(C)(=O)=O)c6)cncc5[nH]4)c3c2)c1 [Compound 495]",
    "readout_type": "pEC50",
    "result_modifier": "=",
    "result_number": 5.46
  },
  {
    "compound": "Cn1cc(-c2ccc3[nH]nc(-c4cc5c(-c6cccnc6)cncc5[nH]4)c3c2)cn1 [Compound 556]",
    "readout_type": "pEC50",
    "result_modifier": "=",
    "result_number": 6.30
  },
  {
    "compound": "CN(C)Cc1cncc(-c2cc3c(-c4cc5c(-c6cccc(F)c6)cncc5[nH]4)n[nH]c3cc2F)c1 [Compound 992]",
    "readout_type": "pEC50",
    "result_modifier": "=",
    "result_number": 6.53
  },
  {
    "compound": "O=C(Cc1ccccc1)Nc1cncc(-c2ccc3[nH]nc(-c4cc5c(-c6ccncc6)cncc5[nH]4)c3c2)c1 [Compound 122]",
    "readout_type": "pEC50",
    "result_modifier": "<",
    "result_number": 5.00
  },
  {
    "compound": "CCNCc1cncc(-c2ccc3[nH]nc(-c4cc5c(-c6ccccc6F)cncc5[nH]4)c3c2)c1 [Compound 62]",
    "readout_type": "pEC50",
    "result_modifier": "=",
    "result_number": 5.33
  },
  {
    "compound": "CN1CCN(c2cncc3[nH]c(-c4n[nH]c5ccc(-c6cncc(NC(=O)CC(C)(C)C)c6)cc45)cc23)CC1 [Compound 240]",
    "readout_type": "pEC50",
    "result_modifier": "=",
    "result_number": 5.35
  },
  {
    "compound": "c1cc(-c2ccc3[nH]nc(-c4cc5c(-c6ccncc6)cncc5[nH]4)c3c2)ccn1 [Compound 130]",
    "readout_type": "pEC50",
    "result_modifier": "<",
    "result_number": 5.00
  },
  {
    "compound": "c1ccc(CNCc2cncc(-c3ccc4[nH]nc(-c5cc6c(-c7cccs7)cncc6[nH]5)c4c3)c2)cc1 [Compound 360]",
    "readout_type": "pEC50",
    "result_modifier": "=",
    "result_number": 6.08
  }
]
